Item-by-item account of pKB
Molecular target: Histamine H2 receptor (Cavia porcellus)
Assay: Histamine H2 receptor antagonism at a concentration of 1 umolar on the isolated guinea pig right atrium.
Format: functional, tissue-based
Details: Cardiac atrium
Could you keep your reply to the number by itself?

Looking for the measured pKB of Nc1ccc(C(=O)NCCNC(=O)NCCCOc2cccc(CN3CCCCC3)c2)cc1 , can you help?
7.23

What does the record list as pKB for N#CN/C(=N\CCNC(=O)c1ccncc1)NCCCOc1cccc(CN2CCCCC2)c1 ?
6.89

Endpoint output: pKB of N#CN/C(=N\CCNC(=O)CCCc1ccccc1)NCCCOc1cccc(CN2CCCCC2)c1 . Value?
6.45

Item under review: N#CN/C(=N\CCNC(=O)c1cccc(I)c1)NCCCCOc1cccc(CN2CCCCC2)c1 . Reported pKB?
6.56

For the compound shown here, Cc1ccc(S(=O)(=O)NCC/N=C(\NC#N)NCCCCOc2cccc(CN3CCCCC3)c2)cc1 , give the reported pKB.
7.29

What measured pKB goes with Nc1ccc(C(=O)NCCCOc2cccc(CN3CCCCC3)c2)cc1 ?
6.82

Sample N#CN/C(=N\CCCNC(=O)c1ccc(N=[N+]=[N-])cc1)NCCCOc1cccc(CN2CCCCC2)c1 — what was its pKB?
6.36

Fill blank: measured pKB of the compound N#CN/C(=N\CCNC(=O)c1ccccc1[N+](=O)[O-])NCCCCOc1cccc(CN2CCCCC2)c1 is ____.
7.52

Can you share its pKB? I mean this compound: C/N=C(/NC#N)NCCSCc1csc(NC(=N)N)n1
7.8

Need pKB of N#CN/C(=N\CCNC(=O)c1ccc(N=[N+]=[N-])cc1)NCCCOc1cccc(CN2CCCCC2)c1 , thanks.
7.9

Look at this compound and give its reported pKB. N#CN/C(=N\CCCNc1ccc(N=[N+]=[N-])cc1[N+](=O)[O-])NCCCCOc1cccc(CN2CCCCC2)c1
6.56
